Test system: HeLa
Assay: Hoechst 33342 nuclear staining, HeLa
Assay type: cell-based, human
Conditions: 48 h, conc. 0.3 (μM)
Method: This assay is performed in 96 well tissue culture plates. Appropriate number of cells (adherent cells: 3-5*10^3, suspension cells: 8-10*10^3) are being seeded out in 80 μl complete medium. […] The assay plates are then further incubated for 30 minutes and subsequently analyzed with a standard inverted fluorescence microscope. The readout allows the determination of the fraction of apoptotic nuclei as well as other morphological criteria specific for apoptosis as a function of the treatment. […]
measurement_type: Hoechst 33342 nuclear staining score

>  <compound_smiles>
COc1ccc(C(=O)Cn2c(-n3ccc(N)n3)nc3ccccc32)cc1

>  <tested_target>
HeLa

>  <recorded_measurement>
0

$$$$

Let's switch to this molecule now.
Q: Consider the molecule "COc1cccc(/C=C/C(=O)Cn2c(-n3ncnc3N)nc3ccccc32)c1" and give its measured Hoechst 33342 nuclear staining score.
Ans: 0
